Measured pIC50, listed per entry for reference.
# Tested on: vesicular stomatitis virus particles (VSV) pseudotyped with EboV Zaire GP
# experiment: microbe, parasite or virus in culture
# Type: cell-based
# test_parameters: Vesicular stomatitis virus
pIC50: −log10 of the molar value.

COC(=O)c1ccc(COc2ccc(F)cc2CN2CCN(C(=O)CNC(=O)CC34CC5CC(CC(C5)C3)C4)CC2)cc1 [Compound 1112] | > 5.70

The value of pIC50 measured for the molecule O=C(Nc1ncc(Cl)cc1CN1CCN(C(=O)CNC(=O)C2CC23CCC(F)(F)CC3)CC1)NC1CC1 (centres unmarked) [Compound 1393] turned out to be < 5.30

The value of pIC50 measured for the molecule O=C(CC12CC3CC(CC(C3)C1)C2)NCC(=O)N1CCN(Cc2cc(Br)ccc2O)CC1 [Compound 1026] turned out to be 6.30 to 6.52

Reference source: patent US11629139B2
